- measurement-description: Half life in BALB/c mouse 20 mg/kg single oral dose by LC/MS/MS analysis
- settings: in vivo
experimental-endpoint: half-life (h)
Report the figure in h without appending any unit label.

half-life measured on N[C@H]1CC[C@H](Nc2nc(Nc3ccc(C(=O)N4CCCCC4)cc3)c3ncn(-c4cccc(F)c4)c3n2)CC1 [PURFALCAMINE] = 3.1

----------
Exercise: state measured pEC50 for each of the molecules provided.
- Tested on: Plasmodium falciparum
- measurement-description: Antiplasmodial activity against Plasmodium falciparum 3D7 after 72 hrs by SYBR green assay
- Format: functional, organism-based
- settings: 3D7, 72 h
Reminder that pEC50 means the negative base-10 logarithm of the concentration expressed in mol/L.

Value sought: pEC50, system Plasmodium falciparum, item O=C(c1ccc(Nc2nc(Nc3cnc4ccccc4c3)nc3c2ncn3-c2ccccc2)cc1)N1CCCCC1 . Result: 7.00

Value sought: pEC50, system Plasmodium falciparum, item N[C@H]1CC[C@H](Nc2nc(Nc3ccc(C(=O)N4CCCCC4)cc3)c3ncn(-c4cccc(OCc5ccccc5)c4)c3n2)CC1 . Result: 6.51

Value sought: pEC50, system Plasmodium falciparum, item CC(C)(C)c1ccc(-n2cnc3c(Nc4ccc(C(=O)N5CCCCC5)cc4)nc(N[C@H]4CC[C@H](N)CC4)nc32)cc1 . Result: 6.22

Value sought: pEC50, system Plasmodium falciparum, item O=C(c1ccc(Nc2nc(NCCCN3CCOCC3)nc3c2ncn3-c2ccccc2)cc1)N1CCCCC1 . Result: 5.52

Value sought: pEC50, system Plasmodium falciparum, item N[C@H]1CC[C@H](Nc2nc(Nc3ccc(C(=O)N4CCCCC4)cc3)c3ncn(-c4cccc(F)c4)c3n2)CC1 [PURFALCAMINE] . Result: 6.64

Value sought: pEC50, system Plasmodium falciparum, item CCOc1ccc(-n2cnc3c(Nc4ccc(C(=O)N5CCCCC5)cc4)nc(N[C@H]4CC[C@H](N)CC4)nc32)cc1 . Result: 6.27

----------
- measurement-description: Plasma concentration in BALB/c mouse at 20 mg/kg single oral dose after 24 hrs by LC/MS/MS analysis
experimental-endpoint: concentration at 24 h (nM)
Report the figure in nM without appending any unit label.

concentration at 24 h measured on N[C@H]1CC[C@H](Nc2nc(Nc3ccc(C(=O)N4CCCCC4)cc3)c3ncn(-c4cccc(F)c4)c3n2)CC1 = 23

----------
- measurement-description: Cytotoxicity against human Hep2 cells after 72 hrs by Cell Titer Glo assay
- Type: cell-based, HEp-2
- settings: read-out: ED50
experimental-endpoint: CC50 at 72 h (µM)
Report the figure in µM without appending any unit label.

CC50 at 72 h measured on N[C@H]1CC[C@H](Nc2nc(Nc3ccc(C(=O)N4CCCCC4)cc3)c3ncn(-c4cccc(F)c4)c3n2)CC1 [PURFALCAMINE] = 7.24

----------
- System: Plasmodium falciparum
- measurement-description: Antiplasmodial activity against pyrimethamine-resistant Plasmodium falciparum HB3 after 72 hrs by SYBR green assay
- Assay type: functional, organism-based
- settings: HB3, 72 h
experimental-endpoint: pEC50
Reminder that pEC50 means the negative base-10 logarithm of the concentration expressed in mol/L.

pEC50 measured on N[C@H]1CC[C@H](Nc2nc(Nc3ccc(C(=O)N4CCCCC4)cc3)c3ncn(-c4cccc(F)c4)c3n2)CC1 [PURFALCAMINE] = 6.75

----------
- measurement-description: Cytotoxicity against human HeLa cells after 72 hrs by Cell Titer Glo assay
- Format: cell-based
- settings: read-out: ED50
experimental-endpoint: CC50 at 72 h (µM)
Report the figure in µM without appending any unit label.

CC50 at 72 h measured on N[C@H]1CC[C@H](Nc2nc(Nc3ccc(C(=O)N4CCCCC4)cc3)c3ncn(-c4cccc(F)c4)c3n2)CC1 = 7.03

Every entry's value here was drawn from ChEMBL document CHEMBL1212705.
